endpoint-name: melting point (°C)
Give bare numbers, in °C.

{"compound": "CCOC(=O)OCC(F)(F)Cn1nc(C)c(-c2ccc3c(c2)NC(=O)CO3)c1-c1ccc(F)cc1 [Example 187]", "result-unit": "°C", "recorded-result": 142}
{"compound": "CCCCCCCCCCCCCCCC(=O)OCC(F)(F)Cn1nc(C)c(-c2ccc3c(c2)NC(=O)CO3)c1-c1ccc(F)cc1 [Example 186]", "result-unit": "°C", "recorded-result": 106}
{"compound": "CCOC(=O)CCC(=O)OCC(F)(F)Cn1nc(C)c(-c2ccc3c(c2)NC(=O)CO3)c1-c1ccc(F)cc1 [Example 185]", "result-unit": "°C", "recorded-result": 100}

Lab note: next compound to report on.
melting point reported for this compound CNC(=O)OCC(F)(F)Cn1nc(C)c(-c2ccc3c(c2)NC(=O)CO3)c1-c1ccc(F)cc1 [Example 198] : 112

Measured values drawn from patent US20100094000A1 for this set.
